# target-of-assay: human GLP1R (Homo sapiens, UniProt P43220)
# Sequence (P43220 24-463): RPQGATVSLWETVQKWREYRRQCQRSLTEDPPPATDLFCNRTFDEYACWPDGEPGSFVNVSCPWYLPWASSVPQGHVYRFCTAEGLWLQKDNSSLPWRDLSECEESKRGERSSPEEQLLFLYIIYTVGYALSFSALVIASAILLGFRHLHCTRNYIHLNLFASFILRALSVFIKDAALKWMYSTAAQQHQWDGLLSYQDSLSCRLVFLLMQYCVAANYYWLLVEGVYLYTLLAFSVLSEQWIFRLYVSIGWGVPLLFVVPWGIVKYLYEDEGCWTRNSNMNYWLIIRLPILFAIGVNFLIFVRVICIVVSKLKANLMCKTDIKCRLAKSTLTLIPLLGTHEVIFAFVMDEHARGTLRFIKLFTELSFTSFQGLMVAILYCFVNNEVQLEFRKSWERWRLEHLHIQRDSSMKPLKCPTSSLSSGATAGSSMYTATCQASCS
# assay-remarks: Human GLP1R cAMP accumulation assay
# Type: cell-based
# Design: HEK293 cells over-expressing full length human GLP-1R were utilized; expressed in transfected cells; host or cells: HEK293 (HEK293/hGLP1R)
# assay-setup: HEK293/hGLP1R cells; Table 4; read-out: cAMP EC50
test-readout: pEC50
As a rule, pEC50 stands for the negative log10 of the concentration, concentration in M.

Input line: For the record CCc1cc(OCCCCn2cc(COCCOCCOCCOCCOCCOCCOCCOCCN)nn2)ccc1-c1ccc(C[C@H](NC(=O)[C@H](CC(=O)O)NC(=O)[C@H](CO)NC(=O)[C@@H](NC(=O)C(C)(Cc2ccccc2F)NC(=O)[C@@H](NC(=O)CNC(=O)[C@H](Cc2nn[nH]n2)NC(=O)C(C)(C)C(=O)NCCc2cnc[nH]2)[C@@H](C)O)[C@@H](C)O)C(=O)N[C@@H](CCCc2cc(C)cc(C)c2)C(N)=O)cc1 (stereo partly drawn) , what value of pEC50 is listed for human GLP1R (Homo sapiens, UniProt P43220)?
Output line: 9.50

Input line: What value of pEC50 on human GLP1R (Homo sapiens, UniProt P43220) does CCc1cc(OCCCCN)ccc1-c1ccc(C[C@H](NC(=O)[C@H](CC(=O)O)NC(=O)[C@H](CO)NC(=O)[C@@H](NC(=O)[C@](C)(Cc2ccccc2F)NC(=O)[C@@H](NC(=O)CNC(=O)[C@@H](N)CCC(N)=O)[C@@H](C)O)[C@@H](C)O)C(=O)N[C@@H](CCCc2cc(C)cc(C)c2)C(N)=O)cc1 have?
Output line: 9.43

Input line: What is its pEC50 for human GLP1R (Homo sapiens, UniProt P43220)? Entry: CCc1cc(OCCCCN)ccc1-c1ccc(C[C@H](NC(=O)[C@H](CC(=O)O)NC(=O)[C@H](CO)NC(=O)[C@@H](NC(=O)[C@](C)(Cc2ccccc2F)NC(=O)[C@@H](NC(=O)CNC(=O)[C@H](Cc2nn[nH]n2)NC(=O)C(C)(C)C(=O)NCCc2cnc[nH]2)[C@@H](C)O)[C@@H](C)O)C(=O)Nc2ccccc2)cc1
Output line: 9.22

Just for reference, patent US20230330254A1 is where these values come from.
